Target under test: Jun bZIP R270A;Fos bZIP R157A (human;human, UniProt P05412;P01100 252-315;137-200, R270A|R157A)
Sequence (P05412 252-315 R270A, chain 1 of 2): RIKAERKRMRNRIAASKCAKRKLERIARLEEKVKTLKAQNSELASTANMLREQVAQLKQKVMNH
Sequence (P01100 137-200 R157A, chain 2 of 2): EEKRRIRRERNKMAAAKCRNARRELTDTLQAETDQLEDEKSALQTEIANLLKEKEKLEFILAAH
Run description: ITC
Readout name: Kd (µM)
Reply with just the number (in µM).

For TRE duplex 15-mer (dsDNA) DNA 1: CGCGTGACTCACCCC DNA 2: GGGGTGAGTCACGCG the binder record lists Kd as 3.56
